experiment: mitochondrial membrane potential change in A549 cells, profiling panel, cell-based, JC-1 fluorescence, basal, 24 h, 100 nL (AID 1138); conditions: higher = more signal;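 further: A549 lung adenocarcinoma cells under basal conditions with no added stimulus; test concentration not given here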
Lab note: anything with z-score at or over 1 counts as Yes; the rest go in No.

Please tell me: is the compound C=CC[C@]1(C(=O)OC)N=C(c2ccc(OCCCO)cc2)O[C@H]1c1ccccc1CN=[N+]=[N-] at or over 1 in terms of z-score?
Yes

Do the same for C=CCN1C(=O)[C@@]2(Cc3ccccc3)N=C(c3ccc(OCCCO)cc3)O[C@H]2c2ccccc21 please
No

Do the same for C=CCC(OC(C)=O)[C@@H]1[C@@H](N(Cc2cccc3ccccc23)C(=O)c2ccc(C)cc2)c2cc(OCCCO)ccc2N1C(=O)c1ccc(-c2ccccc2)cc1 (stereo partly drawn) please
Yes

Do the same for CCOC(=O)C[C@H]1[C@H](OC(=O)c2ccccc2-c2ccccc2)[C@@H](NC(=O)c2ccc(-c3ccccc3)cc2)c2cc(OCCCO)ccc2N1C(=O)Cc1ccc(OC)cc1 please
No

Do the same for CO[C@@H]1COC(=O)CC=C[C@@H](C)[C@H](OC)COC(=O)CC=C[C@H]1C please
Yes

Do the same for CO[C@H]1COC(=O)[C@H](C)NC(=O)CC=C[C@@H](C)[C@H](NS(=O)(=O)c2ccc(C)cc2)COC(=O)CC=C[C@@H]1C please
No

Do the same for O=C(NCC(F)(F)F)[C@@H]1c2ccccc2C(=O)N(Cc2ccccc2Cl)[C@H]1c1ccc(CO)cc1 please
No

----------
Would you mind telling me the reported composite z-score of each entry?
biological target: Calmodulin-1 (Homo sapiens) (UniProt P0DP23); assay: CALM1 binders on microarrays, EGTA buffer, profiling panel, biochemical, small-molecule microarray, Cy5-labelled CALM1 (AID 1111); conditions: Cy5-CALM1 binding fluorescence, higher = more signal;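 further: labelled calmodulin applied in Tris saline Tween buffer holding calcium plus EGTA and DTT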
Just the number, please, no unit after it.

Would you mind telling me what composite z-score value was observed for COc1cc(CO)cc(I)c1O[C@H]1C=C(C(=O)NCCO)C[C@@H](NCCc2c[nH]c3ccccc23)[C@@H]1O ?
0.228

Do the same for CO[C@H]1COC(=O)[C@H](C)COC(=O)[C@H](Cc2ccccc2)NC(=O)CC=C[C@H]1C please
-1.37

Do the same for CC(C)[Si](OCCCNS(=O)(=O)c1ccc(Br)cc1)(C(C)C)C(C)C please
1.19

----------
tested on: Plasmodium falciparum Sir2 (PF13_0152, Sir2A); test: pfSir2 binders on small-molecule microarrays, primary screen, biochemical, small-molecule microarray, 635 nm fluorescence (AID 1098); settings: small-molecule microarray binding, fluorescence 635 nm; higher = more signal;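 further: score merges spot fluorescence intensity with its signal-to-noise ratio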
experimental endpoint: composite z-score
Just the number, please, no unit after it.

Would you mind telling me what composite z-score value was observed for C=CCOC(=O)[C@@H]1[C@H]2C(=O)O[C@H](c3ccccc3)[C@H](c3ccccc3)N2[C@H](c2ccc(OCCOC(=O)[C@H]3C[C@H]4C(=O)N[C@@H](CCCCNC(C)=O)C(=O)N4[C@H]3c3ccc(O)cc3)cc2)[C@@]12C(=O)Nc1ccc(I)cc12 ?
1.3

Do the same for O=C(CS)NCCCCCNC(=O)[C@H]1C[C@H]2C(=O)N[C@@H](Cc3ccccc3)C(=O)N2[C@H]1c1ccc(O)cc1 please
1.26

Do the same for CN(C)CCCC[C@@H]1NC(=O)[C@@H]2C[C@H](C(=O)NCCCCCNC(=O)CS)[C@H](c3ccc(O)cc3)N2C1=O please
1.19
